Origin of the recorded values: PubChem BioAssay (NCI)

Hi there, I'd appreciate the recorded growth for every entry that follows.
- Tested on: IGROV1 ovarian
- Measurement description: NCI-60 one-dose screen, 48 h (100 = growth as untreated, 0 = no growth, -100 = all killed)
- Condition parameters: 10 µM unless noted
Compounds without any hit were thinned out: in the full panel of roughly 83,000, 20% have a hit. Active and inactive are the calls of the source. How the source made its calls: active means growth percent below 10; inactive means the rest.

Can you look up the measured growth of `C[C@@H]1CN(c2nc3c(cc2F)c(=O)c(C(=O)O)cn3C(C)(C)C)C[C@H](C)N1` for me?
121% (inactive)

Consider next the compound `Cc1cc(C)cc(S(=O)(=O)n2ccc(-c3ccc4c(c3)CCC(C)(C)O4)n2)c1` in the same way.
105% (inactive)

Try the compound `Cc1nn2c(/C=C3/C(=O)Nc4cc(Cl)ccc43)c(-c3ccccc3)nc2s1`
-23.5% (active)

// next record `Nc1ccc2c(c1)C(=O)c1cc(Cl)c(Cl)cc1-2`
94.6% (inactive)

# repeat for `COc1ccc2c(c1)sc1nc(-c3ccc(N(C)C)cc3)cn12`
15.8% (inactive)

Now the compound C[C@H]1O[C@@H](O[C@H]2[C@@H](O)C[C@H](O[C@H]3[C@@H](O)C[C@H](O[C@H]4CC[C@]5(C)C6C[C@@H](O)[C@]7(C)[C@@H](C8=CC(=O)OC8)CC[C@]7(O)C6CC[C@@H]5C4)O[C@@H]3C)O[C@@H]2C)C[C@H](O)[C@@H]1O (stereo partly drawn)
-38.4% (active)

// query: `Nc1nc(Nc2ccccc2SSc2ccccc2Nc2nc(N)nc(-c3ccc(I)cc3)n2)nc(-c2ccc(I)cc2)n1`
50.3% (inactive)

For `Cc1ccc(C2=Nc3c(ccc4c(C)c(C)c(=O)oc34)OC2)cc1` then?
98.5% (inactive)
